Source listed as ChEMBL document CHEMBL3352487.

# Test system: Streptococcus pyogenes
# experimental-protocol: Antimicrobial activity against Streptococcus pyogenes 1308007P after 24 hrs by broth microdilution method
# Assay type: functional

compound	display-unit	lt-gt-eq	MIC
O=CN(O)C[C@@H](CC1CCCC1)C(=O)N1CC=C[C@H]1C(=O)Nc1ccc(F)cc1	µg/mL	=	0.25
O=CN(O)C[C@@H](CC1CCCC1)C(=O)N1CC=C[C@H]1C(=O)Nc1ccccc1	µg/mL	=	0.5
CC1(C)S[C@@H]2[C@H](NC(=O)[C@H](N)c3ccc(O)cc3)C(=O)N2[C@H]1C(=O)O [AMOXICILLIN]	µg/mL	≤	0.06
Cc1cnc(NC(=O)[C@@H]2C=CCN2C(=O)[C@H](CC2CCCC2)CN(O)C=O)s1	µg/mL	=	0.5
O=CN(O)C[C@@H](CC1CCCC1)C(=O)N1CC=C[C@H]1C(=O)Nc1ccc(F)c[n+]1[O-]	µg/mL	=	0.5
C=C1C[C@@H](C(=O)Nc2ccc(F)cn2)N(C(=O)[C@H](CCCC)CN(O)C=O)C1	µg/mL	=	4
CCCC[C@H](CN(O)C=O)C(=O)N1CC=C[C@H]1C(=O)Nc1ccc(F)c[n+]1[O-]	µg/mL	=	2
C=C1C[C@@H](C(=O)Nc2ncc(C)s2)N(C(=O)[C@H](CCCC)CN(O)C=O)C1	µg/mL	=	2
